Origin of values: patent US20070093524A1

Tested on: 5-LO mRNA
Experiment: Downregulation of 5-LO gene expression (5-LO mRNA by real-time RT-PCR) in acetylated-LDL-stimulated macrophage cell lines
Format: cell-based, human and mouse
Conditions: 0.3 uM compound; macrophage cell line (THP-1 or J774, not specified)
Experimental: A panel of LXR or PPAR modulator compounds was tested to determine whether they could downregulate 5-LO gene expression. […] Preparation of Acetylated LDL: LDL was dialyzed with 500 mL phosphate buffered saline (PBS) three times. […] The protein concentration is determined using Bio-Rad DC protein assay kit. […] Murine J774 cells were maintained in DMEM (high glucose) containing 10% FBS, 100 units/mL penicillin, and 100 μg/mL streptomycin. […] The cells were then ready for RNA isolation. […]
# maps each entry to its inhibition at 0.3 µM
Value and unit, in that order.

// worked examples, inhibition at 0.3 µM included
Compound | inhibition at 0.3 µM
COC(=O)Cc1ccc(CNc2cccc(-c3c(C)cnc4c(C(F)(F)F)cccc34)c2)cc1 | 78%
COc1cc(CNc2cccc(-c3c(Cc4ccccc4)cnc4c(C(F)(F)F)cccc34)c2)ccc1O | 41%
CCOC(=O)Cc1cccc(CNc2cccc(-c3c(C(=O)c4ccccc4)cnc4c(C(F)(F)F)cccc34)c2)c1 | 40%
COC(=O)C(C)(C)c1ccc(CNc2cccc(-c3c(C)cnc4c(C(F)(F)F)cccc34)c2)cc1 | 67%
CCOC(=O)Cc1ccc(COc2cccc(-c3c(-c4ccccc4)cnc4c(C(F)(F)F)cccc34)c2)cc1 | 81%

Input line: Entry under review: CCOC(=O)Cc1ccc(COc2cccc(-c3c(Cc4ccccc4)cnc4c(C(F)(F)F)cccc34)c2)cc1 . Reported inhibition at 0.3 µM?
Output line: 79%

Input line: # inhibition at 0.3 µM lookup, item O=C(O)Cc1ccc(CNc2cccc(-c3c(Cc4ccccc4)cnc4c(C(F)(F)F)cccc34)c2)cc1
Output line: 82%

---

test system: 5-LO mRNA; test: Downregulation of 5-LO gene expression (5-LO mRNA by real-time RT-PCR) in acetylated-LDL-stimulated macrophage cell lines; type: cell-based, human and mouse; settings: 0.3 uM compound; macrophage cell line (THP-1 or J774, not specified)
Endpoint: inhibition at 0.3 µM (%)
# value in %; strip the unit string

Look over these answered cases.
Compound | Value units | inhibition at 0.3 µM
Oc1cccc(CNc2cccc(-c3c(Cc4ccccc4)cnc4c(C(F)(F)F)cccc34)c2)c1O [Compound I-18] | % | 63
COC(=O)C(C)c1ccc(CNc2cccc(-c3c(C)cnc4c(C(F)(F)F)cccc34)c2)cc1 (stereo not drawn) [Compound I-21] | % | 78
CCOc1cc(CNc2cccc(-c3c(Cc4ccccc4)cnc4c(C(F)(F)F)cccc34)c2)ccc1O [Compound I-19] | % | 22
COC(=O)Cc1ccc(CNc2cccc(-c3c(C(=O)c4ccccc4)cnc4c(C(F)(F)F)cccc34)c2)cc1 [Compound I-11] | % | 74
NNC(=O)Cc1ccc(CNc2cccc(-c3c(Cc4ccccc4)cnc4c(C(F)(F)F)cccc34)c2)cc1 [Compound I-12] | % | 71

API: the following record is the query input.
Input line: May I ask what inhibition at 0.3 µM has been recorded for COC(=O)COc1ccc(COc2cccc(-c3c(-c4ccccc4)cnc4c(C(F)(F)F)cccc34)c2)cc1 [Compound I-23] ?
Output line: 76

---

system: 5-LO mRNA; assay: Downregulation of 5-LO gene expression (5-LO mRNA by real-time RT-PCR) in acetylated-LDL-stimulated macrophage cell lines; type: cell-based, human and mouse; conditions: 3.0 uM compound; macrophage cell line (THP-1 or J774, not specified)
Reported inhibition at 3 µM maps to class as: LOW: < 60%; MEDIUM: ≥ 60% and < 80%; HIGH: ≥ 80%

Take a look at these entries with their results.
Compound | Tgt | Qualitative label
O=C(O)Cc1ccc(CNc2cccc(-c3c(Cc4ccccc4)cnc4c(C(F)(F)F)cccc34)c2)cc1 [Compound I-1] | 5-LO mRNA | HIGH
COc1cc(CNc2cccc(-c3c(Cc4ccccc4)cnc4c(C(F)(F)F)cccc34)c2)ccc1O [Compound I-17] | 5-LO mRNA | LOW

Input line: Just checking, what class would you give CCOC(=O)Cc1ccc(COc2cccc(-c3c(-c4ccccc4)cnc4c(C(F)(F)F)cccc34)c2)cc1 [Compound I-14] here?
Output line: HIGH

Input line: Each compound maps to one class by inhibition at 3 µM. Which class for CCOC(=O)Cc1ccc(COc2cccc(-c3c(Cc4ccccc4)cnc4c(C(F)(F)F)cccc34)c2)cc1 [Compound I-15] ?
Output line: MEDIUM

Input line: # bin lookup: classify Oc1cccc(CNc2cccc(-c3c(Cc4ccccc4)cnc4c(C(F)(F)F)cccc34)c2)c1O [Compound I-18] by its inhibition at 3 µM
Output line: LOW
